# Test system: VchCAST RNA-guided transposition machinery (E. coli BL21(DE3) host, lacZ target)
# Protocol summary: relative integration efficiency (T-LR orientation) vs wild-type transposon end (log2 (normalized fold change)); transposon end mutated: right end (5 bp flank + 75 bp right end); higher = more efficient transposition
I would appreciate it if you labelled entries condition met when relative integration efficiency (log2) is -0.7 or higher, otherwise condition not met.

| Sequence string | Category label |
| --- | --- |
| ACATTTGTTGATAACACCATAAAATGATAATTACACCCATAAATTGATAATTATCACACCCATAAATTGATATTGCCTCTGATCATAGTCAGACCAACATTGCTACGACCCGTATTCGCACCGACAC | condition not met |
| ACATTTGTTGATACAACCATCCCCTGATAATTACACCCATAAATTGATAATTATCACACCCATAAATTGATATTGCCTCTGATCATAGTCAGACCAACATTGCTACGACCCGTATTCGCACCGACAC | condition not met |
| ACATTTGTTGATACAACCATAAAATGATAATTACACCCATAAATTGATAATTATCACACCCATAAATTGATATTGCCTCTGATAACTTCGTATAGTATACCTTATACGAAGTTATTCGCACCGACAC | condition met |
| ACATTTGTTGATACACCCATAAATTGATAATTACAACCATAAAATGATAATTATCACAACCATATATTGATATCTCCTCTGATCATAGTCAGACCAACATTGCTACGACCCGTATTCGCACCGACAC | condition met |
| ACATTTGTTGATACAACCATAAAATGATAATTAGTCCCATAAATTGATAATTATCACACCCATAAATTGATATTGCCTCTGATCATAGTCAGACCAACATTGCTACGACCCGTATTCGCACCGACAC | condition not met |
| ACATTTGTTGATACAACCATAAAGTGATATTTACACCCATAAATTGATATTGCTCACAACCATATATTGATATCTCCTCTGATCATAGTCAGACCAACATTGCTACGACCCGTATTCGCACCGACAC | condition met |
| ACATTTGTTGATACAACCATAAAATCATCATTACACCCATAAATTGATAATTATCACACCCAATTTAACTATAACGCTCTGATCATAGTCAGACCAACATTGCTACGACCCGTATTCGCACCGACAC | condition met |
| ACATTTGTTGATACAACCATAAAATGATAATTACACCCATAAATTGATAATTATCACACCCATAAATTGATATTGCCTCTGATCATAGTCAGCAACCATAAAATGATAATTAACCAAGCACCGACAC | condition met |
| ACATTTGTTGATACAACCATTAAATGATAATTACACCCATAATTTGATAATTATCACACCCAATTTAACTATAACGCTCTGATCATAGTCAGACCAACATTGCTACGACCCGTATTCGCACCGACAC | condition met |
